Experimental Target: Orai1/STIM1 (Homo sapiens)
Sequence (Q96D31 whole entry): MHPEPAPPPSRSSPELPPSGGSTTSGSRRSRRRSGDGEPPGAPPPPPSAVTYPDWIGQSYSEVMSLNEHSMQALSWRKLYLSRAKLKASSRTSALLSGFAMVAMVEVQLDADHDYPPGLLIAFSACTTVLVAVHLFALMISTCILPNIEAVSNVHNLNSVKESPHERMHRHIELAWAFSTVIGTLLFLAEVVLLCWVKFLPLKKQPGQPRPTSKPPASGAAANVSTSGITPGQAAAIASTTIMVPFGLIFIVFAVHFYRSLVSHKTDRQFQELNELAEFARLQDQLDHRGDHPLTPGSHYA
Assay Comment: Fluorescence-based assay of store-operated calcium entry in Orai1/STIM1 stable cells
Settings: HEK-293 cells stably expressing human STIM1 and Orai1; 50% inhibition of Peak-Basal fluorescence signal; read-out: Orai1/STIM1 (IC50, μmol)
pIC50: −log10 of the molar value.
Measure Name: pIC50

Asked: Value lookup for pIC50; key = `O=C(Nc1ccc(-c2cn(-c3nccs3)nc2C(F)(F)F)cn1)c1c(F)ccc(F)c1F`
Given back: 5.92 to 6.22

Asked: Value lookup for pIC50; key = `Cc1nn(-c2nccs2)cc1-c1ccc(NC(=O)c2ccccc2OC(F)F)s1`
Given back: 5.92 to 6.22

Asked: Value lookup for pIC50; key = `Cc1nn(-c2nccs2)cc1-c1cnc(NC(=O)c2ccc(F)c(F)c2F)cn1`
Given back: < 5.92
